Every entry's value here was drawn from ChEMBL document CHEMBL5329171.

Molecular target: ICOS-ICOSL (Homo sapiens, UniProt O75144+Q9Y6W8)
Sequence (O75144 whole entry, the tested form may be a part): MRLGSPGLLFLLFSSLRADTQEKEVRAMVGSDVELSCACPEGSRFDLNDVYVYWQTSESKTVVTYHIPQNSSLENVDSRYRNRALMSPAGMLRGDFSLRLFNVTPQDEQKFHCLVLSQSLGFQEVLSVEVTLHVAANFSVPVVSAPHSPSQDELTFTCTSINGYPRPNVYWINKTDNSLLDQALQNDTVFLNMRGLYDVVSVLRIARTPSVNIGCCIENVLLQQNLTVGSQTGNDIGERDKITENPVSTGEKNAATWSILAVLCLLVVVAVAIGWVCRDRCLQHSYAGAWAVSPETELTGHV
Sequence (Q9Y6W8 whole entry, the tested form may be a part): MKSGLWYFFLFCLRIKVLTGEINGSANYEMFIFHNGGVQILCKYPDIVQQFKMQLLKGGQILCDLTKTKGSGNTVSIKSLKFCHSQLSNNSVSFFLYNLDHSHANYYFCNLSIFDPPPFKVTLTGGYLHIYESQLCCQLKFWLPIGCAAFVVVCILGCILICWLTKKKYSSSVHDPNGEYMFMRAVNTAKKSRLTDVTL
Experiment: Inhibition of ICOS (unknown origin)/C-terminal IgG1 FC region fused human ICOSL interaction by ELISA
Format: protein assay
pIC50: −log10 of the molar value.

| mol | pIC50 |
| --- | --- |
| COc1c(Cl)cc2c([nH]c3cnccc32)c1NC(=O)c1cccnc1C | 4.99 |

---

Target: ICOS-ICOSL (Homo sapiens, UniProt O75144+Q9Y6W8)
Assay: Inhibition of C-terminal IgG1 Fc region fused human ICOS extracellular domain (1 to 141 residues)/C-terminal polyhistidine tagged human ICOSL extracellular domain (1 to 258 residues) interaction incubated for 1 hr by TR-FRET assay
Assay type: protein assay

| mol | unitAnnotation | cmp | IC50 |
| --- | --- | --- | --- |
| COc1ccccc1C(=O)Nc1cc(Cl)cc2c1[nH]c1cnccc12 | µM | = | 43.7 |
| COc1ccc(C(=O)Nc2cc(Cl)cc3c2[nH]c2cnccc23)cc1 | µM | = | 49.3 |
| O=C(Nc1cc(Cl)cc2c1[nH]c1cnccc12)c1ccccn1 | µM | = | 28.6 |
| CCOc1ccc(-c2nc(C(=O)Nc3ccccc3Cl)cc3c2[nH]c2ccccc23)cc1OC | µM | > | 50 |
| O=C(Nc1cc(Cl)cc2c1[nH]c1cnc(NCc3ccccc3)cc12)c1cccnc1 | µM | = | 4.68 |
| O=C(Nc1ccc(Cl)cc1)c1c(O)ccc2c1[nH]c1ccccc12 | µM | > | 50 |
| COc1c(Cl)cc2c([nH]c3cnccc32)c1NC(=O)c1cncnc1C | µM | = | 5.65 |
| COc1cccc(C(=O)Nc2cc(Cl)cc3c2[nH]c2cnccc23)c1 | µM | = | 36.7 |
| O=C(Cc1ccccn1)Nc1cc(Cl)cc2c1[nH]c1cnccc12 | µM | = | 37.1 |
| COc1c(Cl)cc2c([nH]c3cnccc32)c1NC(=O)c1cccnc1C | µM | = | 12.2 |
| O=C(Nc1cc(Cl)cc2c1[nH]c1cnc(NCc3ccccc3)cc12)c1ccccn1 | µM | = | 15.5 |
| CC1(C)CN[C@@H](C(=O)Nc2cc(Cl)cc3c2[nH]c2cnccc23)CO1 | µM | = | 11.1 |
| O=C(Nc1ccc(Cl)cc1)c1cc2c(cc1O)[nH]c1ccccc12 | µM | > | 50 |
| O=C(Nc1cc(Cl)cc2c1[nH]c1cnccc12)c1ccncc1 | µM | = | 31 |
| O=C(Nc1cc(Cl)cc2c1[nH]c1cnccc12)c1cccnc1 | µM | = | 13.9 |
| O=C(Nc1cc(Cl)cc2c1[nH]c1cnc(NCc3ccccc3)cc12)c1ccncc1 | µM | = | 18.4 |
| O=C(Nc1cc(Cl)cc2c1[nH]c1cnccc12)c1ccccc1 | µM | > | 50 |
